- method-description: Plasma protein binding (RED), human
- Format: in vitro ADME
- setup-conditions: pH 7.4, 1 μM, read-out: Plasma Protein Binding (% Bound) Human (converted)
result-type: fraction unbound at 4 h, 1 μM
Answers are plain numbers.

The compound listed as "Cc1ccc2nc(-c3ccc4nc(-c5ccc(NC(=O)c6cccc(Cl)c6)cc5)sc4c3)sc2c1S(=O)(=O)O" has a reported fraction unbound at 4 h, 1 μM of 0.02

###

Would you mind telling me the reported EC50 of each entry?
- System: MBHA DNA substrate
- method-description: Modified FID assay, SYBR Green I
- Assay type: binding
- setup-conditions: SYBR Green; read-out: FID (SG) EC50 (converted)
- Method: A modified FID assay, in which ethidium bromide was replaced with SYBR Green I (Invitrogen), was used to estimate a compounds affinity for the MBHA substrate. Reactions were performed as described above except that the DNA substrate was present at 0.32 μM, ethidium bromide was absent, and SYBER Green was present at (0.68 μM). Data were normalized as described above and fit to concentration-response equation using GraphPad Prism software. […]

Some compounds with known EC50 results, for comparison:
Cc1ccc2nc(-c3ccc4nc(-c5ccc(NC(=O)c6ccc(C(C)(C)C)cc6)cc5)sc4c3)sc2c1S(=O)(=O)O [Compound 13] | 16 µM
Cc1ccc2nc(-c3ccc4nc(-c5ccc(NC(=O)c6ccc(N(C)C)cc6)cc5)sc4c3)sc2c1S(=O)(=O)O [Compound 14] | > 100 µM
Cc1ccc2nc(-c3ccc(NC(=O)c4ccc(NC(=O)c5ccc(N)cc5)cc4)cc3)sc2c1S(=O)(=O)O.N [Compound 46] | > 100 µM
Cc1ccc2nc(-c3ccc4nc(-c5ccc(NC(=O)c6cc(C(F)(F)F)ccc6F)cc5)sc4c3)sc2c1S(=O)(=O)O [Compound 25] | > 100 µM
Cc1ccc2nc(-c3ccc4nc(-c5ccc(NC(=O)c6cccc7ccccc67)cc5)sc4c3)sc2c1S(=O)(=O)O.N [Compound 49] | 30 µM

Kindly give each listed record's EC50.
1. Cc1ccc2nc(-c3ccc4nc(-c5ccc(NC(=S)Nc6ccccc6)cc5)sc4c3)sc2c1S(=O)(=O)O.N [Compound 50]
2. Cc1ccc2nc(-c3ccc4nc(-c5ccc(NC(=O)c6ccc7nc(-c8ccc(N)cc8)sc7c6)cc5)sc4c3)sc2c1S(=O)(=O)O [Compound 35]
3. Cc1ccc2nc(-c3ccc4nc(-c5ccc(N(C)C(=O)c6ccc7ccccc7c6)cc5)sc4c3)sc2c1S(=O)(=O)O [Compound 34]

30 µM
68 µM
> 100 µM
